ASSAY_SYSTEM: Replicative DNA helicase DnaB (Mycobacterium tuberculosis, UniProt P9WMR3)
Sequence (P9WMR3 1-399, added parts left off): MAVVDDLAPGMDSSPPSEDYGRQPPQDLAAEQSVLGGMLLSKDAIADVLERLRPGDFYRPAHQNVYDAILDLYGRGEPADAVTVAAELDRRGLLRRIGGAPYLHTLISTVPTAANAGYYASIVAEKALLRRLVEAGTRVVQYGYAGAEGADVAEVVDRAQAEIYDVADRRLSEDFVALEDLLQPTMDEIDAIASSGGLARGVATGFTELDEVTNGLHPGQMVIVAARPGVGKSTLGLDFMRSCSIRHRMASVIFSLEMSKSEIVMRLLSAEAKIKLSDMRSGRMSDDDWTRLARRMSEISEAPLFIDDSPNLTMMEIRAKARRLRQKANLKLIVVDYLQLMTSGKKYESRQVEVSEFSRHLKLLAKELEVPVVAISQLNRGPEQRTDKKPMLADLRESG
PROTOCOL_SUMMARY: DnaB intein splicing inhibitors, dose response, biochemical, cell-free fluorescence (AID 449749)
Type: functional
Activity calls are given as the source filed them.
Respond with a class label; see Yes (active), No (inactive)

Dear colleague, could you share the recorded outcome for `Cc1ccc(NC2=C/C(=N\S(=O)(=O)c3cccs3)c3ccccc3C2=O)c(C)c1` when you have a moment?
Yes

Check the results log: what was the call for `Cn1ncnc2c(=O)n(C)c(=O)nc1-2` ?
Yes

Recorded call for `Cc1[nH]n(-c2ccccc2)c(=O)c1C(c1ccc(C(=O)O)cc1)c1c(C)[nH]n(-c2ccccc2)c1=O` ?
Yes

Record request — test call for `Cc1nc2c(=O)n(C)c(=O)n(C)c2nc1Cl`
Yes

Field: outcome | Entry: `COc1ccccc1NC(=O)CSc1nc2c(sc3ccccc32)c(=O)n1CCN(C)C`
Yes

# lookup: test call for `CC(=O)N(C1=C(Cl)C(=O)c2ccccc2C1=O)C1CCCCC1`
Yes

What did the test return for `CCN(CC)S(=O)(=O)c1ccc(N2CCN(S(=O)(=O)c3ccccc3C#N)CC2)nc1` ?
No

Dear all, I need the recorded test outcome for O=C(N/N=C/c1ccc([N+](=O)[O-])o1)c1ccc(O)cc1 [NIFUROXAZIDE] , thank you.
No

GET /call?item= `O=C(CCl)Nc1cccc(S(=O)(=O)N2CCCCCC2)c1` returns the recorded outcome of this test.
Yes

---

ASSAY_SYSTEM: Voltage-dependent T-type calcium channel subunit alpha-1H (Homo sapiens, UniProt O95180);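 also: channel activity triggered by adding a high calcium stimulation buffer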
Type: functional
Active and inactive are the calls of the source.
REPORTED_PROPERTY: EC50

Return EC50 (reported value) for this compound: `CC[n+]1c(/C=C/C=C/N(C(C)=O)c2ccccc2)sc2ccccc21`
2.21 µM (active)

Input `O=C(CN(C1CCCCC1)C1CCCCC1)N1CCc2ccccc2C1` , output reported EC50.
4.36 µM (active)

Return EC50 for the following compound: `Cc1csc(NC(=O)CSc2nc3ccccc3s2)n1`
7.68 µM (active)

Identify measured EC50 corresponding to `CCN(CCCNC(=O)CCc1nc(-c2ccc(OC)cc2)no1)c1cccc(C)c1`
4.41 µM (active)

---

ASSAY_SYSTEM: Fatty acid synthase (Homo sapiens, UniProt P49327)
Sequence (P49327 whole entry, the tested form may be a part): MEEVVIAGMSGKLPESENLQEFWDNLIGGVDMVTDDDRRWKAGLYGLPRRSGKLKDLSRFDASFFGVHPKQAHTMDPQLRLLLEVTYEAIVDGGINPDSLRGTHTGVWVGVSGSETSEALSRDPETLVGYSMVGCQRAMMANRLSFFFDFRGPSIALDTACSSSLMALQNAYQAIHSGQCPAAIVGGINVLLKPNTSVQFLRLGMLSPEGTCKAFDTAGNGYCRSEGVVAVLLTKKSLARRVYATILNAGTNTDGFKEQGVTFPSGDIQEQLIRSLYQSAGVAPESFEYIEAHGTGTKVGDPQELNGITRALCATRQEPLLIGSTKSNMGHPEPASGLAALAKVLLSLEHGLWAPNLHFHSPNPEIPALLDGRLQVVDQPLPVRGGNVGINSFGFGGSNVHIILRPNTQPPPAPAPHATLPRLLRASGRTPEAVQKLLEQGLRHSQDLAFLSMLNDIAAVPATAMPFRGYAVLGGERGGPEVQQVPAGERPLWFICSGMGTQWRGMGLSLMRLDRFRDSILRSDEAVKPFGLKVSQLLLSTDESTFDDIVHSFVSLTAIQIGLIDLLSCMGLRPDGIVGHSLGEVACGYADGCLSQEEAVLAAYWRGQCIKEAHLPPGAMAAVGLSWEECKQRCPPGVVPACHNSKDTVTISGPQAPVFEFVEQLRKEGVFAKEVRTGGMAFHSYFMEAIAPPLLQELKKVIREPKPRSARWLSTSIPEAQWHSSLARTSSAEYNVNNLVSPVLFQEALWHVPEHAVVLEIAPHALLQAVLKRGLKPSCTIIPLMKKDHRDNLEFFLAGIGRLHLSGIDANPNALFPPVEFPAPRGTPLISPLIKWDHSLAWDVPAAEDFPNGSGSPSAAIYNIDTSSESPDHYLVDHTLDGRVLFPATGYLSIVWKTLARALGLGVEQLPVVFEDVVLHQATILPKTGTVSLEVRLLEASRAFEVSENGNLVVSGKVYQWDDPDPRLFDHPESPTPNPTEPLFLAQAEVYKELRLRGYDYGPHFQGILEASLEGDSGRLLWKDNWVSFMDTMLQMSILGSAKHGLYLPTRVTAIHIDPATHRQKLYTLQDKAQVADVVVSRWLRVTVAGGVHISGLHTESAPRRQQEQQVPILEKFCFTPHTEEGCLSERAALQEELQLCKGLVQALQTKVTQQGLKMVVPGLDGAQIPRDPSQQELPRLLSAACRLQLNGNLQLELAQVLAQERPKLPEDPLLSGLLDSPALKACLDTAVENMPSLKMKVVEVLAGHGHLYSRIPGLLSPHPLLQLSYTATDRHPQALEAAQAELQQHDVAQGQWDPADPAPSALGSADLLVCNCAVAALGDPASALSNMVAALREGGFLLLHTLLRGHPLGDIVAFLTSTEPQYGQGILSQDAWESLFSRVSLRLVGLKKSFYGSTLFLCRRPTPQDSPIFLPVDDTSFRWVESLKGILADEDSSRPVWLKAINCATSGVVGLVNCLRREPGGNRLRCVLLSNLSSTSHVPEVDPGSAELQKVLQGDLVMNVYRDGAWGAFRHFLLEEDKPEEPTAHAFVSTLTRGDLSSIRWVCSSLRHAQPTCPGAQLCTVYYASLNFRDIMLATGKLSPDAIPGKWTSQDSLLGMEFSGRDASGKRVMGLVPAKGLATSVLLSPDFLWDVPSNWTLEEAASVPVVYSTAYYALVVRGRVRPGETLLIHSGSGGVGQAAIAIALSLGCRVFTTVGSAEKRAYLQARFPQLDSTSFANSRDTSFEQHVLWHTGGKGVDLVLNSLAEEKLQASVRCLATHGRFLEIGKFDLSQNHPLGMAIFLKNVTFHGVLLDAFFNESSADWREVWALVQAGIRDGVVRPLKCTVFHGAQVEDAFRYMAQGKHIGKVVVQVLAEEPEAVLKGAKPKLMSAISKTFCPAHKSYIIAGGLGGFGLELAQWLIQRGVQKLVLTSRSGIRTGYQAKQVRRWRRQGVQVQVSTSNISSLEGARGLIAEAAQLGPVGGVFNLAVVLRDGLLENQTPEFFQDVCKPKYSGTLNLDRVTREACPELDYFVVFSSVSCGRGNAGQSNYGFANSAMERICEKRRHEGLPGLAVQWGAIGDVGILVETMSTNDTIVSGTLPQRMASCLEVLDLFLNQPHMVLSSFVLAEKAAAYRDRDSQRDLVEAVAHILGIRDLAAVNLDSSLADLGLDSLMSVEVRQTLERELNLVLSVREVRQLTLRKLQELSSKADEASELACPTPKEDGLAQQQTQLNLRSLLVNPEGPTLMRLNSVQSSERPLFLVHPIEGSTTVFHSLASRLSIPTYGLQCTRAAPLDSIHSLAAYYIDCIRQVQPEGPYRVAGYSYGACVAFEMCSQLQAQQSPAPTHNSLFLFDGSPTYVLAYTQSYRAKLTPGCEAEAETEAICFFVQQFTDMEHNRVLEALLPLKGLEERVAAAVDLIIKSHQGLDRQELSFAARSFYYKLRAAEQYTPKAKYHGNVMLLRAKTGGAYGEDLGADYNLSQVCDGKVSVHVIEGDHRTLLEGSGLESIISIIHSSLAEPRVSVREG
PROTOCOL_SUMMARY: FAS thioesterase domain inhibitors, dose response, biochemical, endpoint fluorescence intensity, uHTS hits (AID 624327);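 also: fluorescence from hydrolysis of an O-methyl fluorescein acyl ester substrate by the enzyme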
Type: functional
Active and inactive are the calls of the source.
Would you kindly list IC50 for each of these compounds?

Supply recorded IC50 for `CN1C(=O)/C(=C\c2cc(N=Nc3ccccc3)ccc2O)SC1=S` here.
33.7 µM (inactive)

Tell me its IC50 given `O=C(/C=C/c1cccc([N+](=O)[O-])c1)N1CCN(c2ccccc2F)CC1` as the entry.
11.6 µM (active)

Specify measured IC50 for `CCOC(=O)c1cc2c(=O)n3ccccc3nc2n(Cc2ccco2)/c1=N/C(=O)c1ccc(OC)cc1` .
14.6 µM (active)

Look up and report measured IC50 for this entry: `COc1ccc2cc3cc(C(=O)N4CCCCCC4)oc3nc2c1`
3.92 µM (active)

Read the entry `CCCCOc1ccc(-c2c(C#N)c(N)nc(SCC(N)=O)c2C#N)cc1` and write its reported IC50.
1.12 µM (active)

Please report IC50 for the following compound: `CC(=O)N(C1=C(Cl)C(=O)c2ccccc2C1=O)C1CCCCC1`
3.02 µM (active)
